Binarize intrinsic clearance, human liver microsomes at 10 mL/min/kg; below is true (1), at or above is false (0).

INPUT: Just wondering, is intrinsic clearance, human liver microsomes of c1ccc(-c2nc(CSc3ccc(-n4cccn4)nn3)cs2)cc1 below 10 mL/min/kg?
OUTPUT: false (0)

INPUT: Criterion: intrinsic clearance, human liver microsomes strictly below 10 mL/min/kg. Is it met by COc1ccccc1OC1CCN(Cc2ccccc2C#N)CC1 ?
OUTPUT: false (0)

INPUT: Strictly below 10 mL/min/kg: is that where intrinsic clearance, human liver microsomes of Cc1nnnn1CCN(C)c1ccccc1 sits?
OUTPUT: true (1)

INPUT: Determine if O=C(Nc1cccc(N2CCNC2=O)c1)C1NCC12CCCC2 (stereo not given) shows intrinsic clearance, human liver microsomes strictly lower than 10 mL/min/kg.
OUTPUT: true (1)

INPUT: Please check: intrinsic clearance, human liver microsomes for CNC(=O)c1sc2ncccc2c1[C@H]1CC[C@H](CNC(=O)COc2ccccc2)CC1 , strictly under 10 mL/min/kg or not?
OUTPUT: false (0)

INPUT: Input O=C(CSc1nc2nc(O)cc(O)c2s1)c1ccc(-c2ccccc2)cc1 ; condition: intrinsic clearance, human liver microsomes strictly below 10 mL/min/kg. Does it hold?
OUTPUT: false (0)

INPUT: Is intrinsic clearance, human liver microsomes strictly under 10 mL/min/kg for the entry COCCN1CCOc2nc3c(C)cccc3cc2C1 ?
OUTPUT: false (0)

INPUT: # TODO verify intrinsic clearance, human liver microsomes < 10 mL/min/kg strictly for this compound: Cc1nc2ncccn2c1C(=O)N(CC#Cc1ccccc1)C1CCCC1
OUTPUT: false (0)

INPUT: is_below(intrinsic clearance, human liver microsomes, 10 mL/min/kg) for O=C1CSc2ccc(C(=O)Nc3cc(C4CC4)n[nH]3)cc2N1 ?
OUTPUT: true (1)

INPUT: Dear colleague, could you confirm whether intrinsic clearance, human liver microsomes of CC(C)c1nnc(CNC(=O)C2(C)CCC2)n1C falls below 10 mL/min/kg? Thanks.
OUTPUT: true (1)

INPUT: Strictly below 10 mL/min/kg: is that where intrinsic clearance, human liver microsomes of NC1(c2noc(-c3cccnc3)n2)CCCCCC1 sits?
OUTPUT: true (1)

INPUT: Below 10 mL/min/kg on intrinsic clearance, human liver microsomes? Entry CN1CCN(c2ncncc2-c2nc(-c3ccccc3)no2)CC1
OUTPUT: false (0)

INPUT: For O=C(CCCOc1ccccc1)N1CCCC1 , is the recorded intrinsic clearance, human liver microsomes below the cut-off of 10 mL/min/kg?
OUTPUT: false (0)

INPUT: Here's an entry: Cc1ncc(-c2ccccn2)c(CCNC(=O)C2CCCC2)n1 . Is its intrinsic clearance, human liver microsomes below 10 mL/min/kg?
OUTPUT: true (1)

INPUT: API: query returns whether the compound falls strictly under 10 mL/min/kg in intrinsic clearance, human liver microsomes. Query: Cc1nc(Cn2nnnc2C(C)(C)C)nc2ccccc12
OUTPUT: true (1)

INPUT: I wonder whether Clc1ccc(C2(c3ccc(-c4cn[nH]c4)cc3)CCNCC2)cc1 has intrinsic clearance, human liver microsomes below 10 mL/min/kg. Can you tell?
OUTPUT: true (1)

INPUT: Identify whether the compound Clc1cccc(Cl)c1Cc1n[nH]c(CCCn2cccn2)n1 records intrinsic clearance, human liver microsomes below 10 mL/min/kg.
OUTPUT: false (0)

INPUT: Dear reviewer, please state whether CCSCc1nc(N)c2ccccc2n1 has intrinsic clearance, human liver microsomes strictly beneath 10 mL/min/kg.
OUTPUT: false (0)

INPUT: Report whether reported intrinsic clearance, human liver microsomes is lower than 10 mL/min/kg (strictly) for Fc1cc(Br)ccc1CNCc1ccccn1
OUTPUT: false (0)

INPUT: Field: below-cutoff. Rule: recorded intrinsic clearance, human liver microsomes strictly less than 10 mL/min/kg. Subject: Cc1ccc(F)cc1CNc1cc(C(=O)N(C)C)ccn1
OUTPUT: false (0)

INPUT: Does the reported intrinsic clearance, human liver microsomes of the following compound sit strictly below 10 mL/min/kg? C[C@@H](c1ccc2ccc(O[C@H]3CC[C@@H](C(F)(F)F)CC3)c(C(F)(F)F)c2c1)N1C2CCC1CC(C(=O)O)C2 (stereo not given in full)
OUTPUT: true (1)

INPUT: Hello, is intrinsic clearance, human liver microsomes of the following compound strictly smaller than 10 mL/min/kg? COc1cc(Nc2ncc3c(n2)-c2ccc(Cl)cc2C(c2c(F)cccc2OC)=NC3)ccc1C(=O)O
OUTPUT: true (1)

INPUT: Determine whether this compound shows intrinsic clearance, human liver microsomes lower than 10 mL/min/kg (ties excluded): N#CC1(NC(=O)C2CCCCCC2)CC1
OUTPUT: true (1)

INPUT: Could you please tell me whether intrinsic clearance, human liver microsomes recorded for Cc1nonc1C(=O)Nc1cccnc1N(C)C is less than 10 mL/min/kg?
OUTPUT: false (0)

INPUT: Answer whether the compound Cc1ccc(CCC(=O)Nc2nccc3sccc23)o1 has intrinsic clearance, human liver microsomes strictly less than 10 mL/min/kg
OUTPUT: false (0)

---

I'd appreciate it if you could supply fraction unbound, rat plasma values for the items below.
Answer with a number only.

INPUT: Field request: fraction unbound, rat plasma | item: Nc1n[nH]cc1-c1cc(Cl)ccc1Oc1cc(F)c(S(=O)(=O)Nc2cscn2)cc1Cl
OUTPUT: 0.00827

INPUT: What does the record list as fraction unbound, rat plasma for COCCc1ccc(OCC(O)CNC(C)C)cc1 (stereo unspecified) ?
OUTPUT: 1

INPUT: What fraction unbound, rat plasma value was documented for this compound, Nc1ncnc2c1c(-c1ccc(Oc3ccccc3)cc1)nn2[C@@H]1CCCNC1 ?
OUTPUT: 0.0702

INPUT: I'd like to know its fraction unbound, rat plasma. The compound in question is C#C[C@@](C)(CC)NC(=O)c1cc(F)cnc1NC1CC(F)(F)C1
OUTPUT: 0.0708

INPUT: Value lookup for fraction unbound, rat plasma; key = COc1ccc(OC[C@@H]2c3cc(OC)c(OC)cc3CCN2C(=O)c2cccc(Cl)c2)cc1
OUTPUT: 0.0171

INPUT: Give its fraction unbound, rat plasma value. Item: Nc1c(F)ccc2cnc(-n3ccc4ccncc43)cc12
OUTPUT: 0.0428

INPUT: Item Cc1c(-c2c(F)cc(C(N)=O)c3[nH]c4c(c23)CC[C@H](C(C)(C)O)C4)cccc1-n1c(=O)c2cccc(F)c2n(C)c1=O has what recorded fraction unbound, rat plasma?
OUTPUT: 0.0212

INPUT: I would be grateful if you could share the reported fraction unbound, rat plasma for COc1ccc(CCCN2CCN(c3cnn(C)c3)C(=O)C2)cc1F .
OUTPUT: 0.203

INPUT: Could you tell me which fraction unbound, rat plasma is on file for C[C@@H]1CN(C(=O)CC(c2ccccc2)c2ccccc2)C[C@H](C)O1 ?
OUTPUT: 0.0523

INPUT: Entry under review: Cc1nnc(-c2ccc3occ(-c4ccc(S(C)=O)cc4)c3c2)o1 (stereo unspecified) . Reported fraction unbound, rat plasma?
OUTPUT: 0.12

INPUT: For the compound shown here, CC1CN(C(=O)c2cccnc2N2CCOCC2)CC(c2ccccc2)O1 (stereo unspecified) , give the reported fraction unbound, rat plasma.
OUTPUT: 0.359

INPUT: Tell me the measured fraction unbound, rat plasma of CC(O)(C#Cc1ccc2c(c1)N(c1nc(N)ncc1Cl)CC2)c1nccs1 (stereo unspecified) , please.
OUTPUT: 0.0188

INPUT: # lookup: fraction unbound, rat plasma of C[C@@H]1Cc2ccccc2N1C(=O)Cn1nc(-c2cccc3ncccc23)oc1=O
OUTPUT: 0.0229

INPUT: Which fraction unbound, rat plasma reading was recorded for the compound C=CC(=O)N1CCC([C@@H]2CCNc3c(C(N)=O)c(-c4ccc(Oc5ccccc5)cc4)nn32)CC1 ?
OUTPUT: 0.0171

INPUT: Quick check: fraction unbound, rat plasma of Cc1oc2ccccc2c1CNc1nnc(-c2ccncc2)o1 ?
OUTPUT: 0.00672

INPUT: Given the entry CN(C)C(=O)C1(Cc2ccccc2-c2ccccc2)CCN(C(=O)C2CCCO2)CC1 (stereo unspecified) , report its measured fraction unbound, rat plasma.
OUTPUT: 0.184

INPUT: Can you look up the measured fraction unbound, rat plasma of C[C@@H]1CCN(C(=O)CC#N)C[C@@H]1N(C)c1ncnc2[nH]ccc12 for me?
OUTPUT: 0.559

INPUT: What does the record list as fraction unbound, rat plasma for CN(Cc1ccccc1)C1(C(=O)N2CCNC(=O)CC2)Cc2ccccc2C1 ?
OUTPUT: 0.0818

INPUT: Item C=CC(=O)Nc1cccc(Oc2nc(Nc3ccc(N4CCN(C)CC4)cc3)nc3ccoc23)c1 has what recorded fraction unbound, rat plasma?
OUTPUT: 0.00619

INPUT: Report fraction unbound, rat plasma for O=C(CN1CCCC(c2cccc(Cc3cccc(F)c3)n2)C1)N1CCCC1 (stereo unspecified) please.
OUTPUT: 0.0899

INPUT: I have this compound here, CC(C)CC(NC(=O)C(O)C(N)Cc1ccccc1)C(=O)O (stereo unspecified) , and I need its recorded fraction unbound, rat plasma.
OUTPUT: 0.347

Data credit: the Biogen ADME set (Fang et al. 2023)
